protocol.details: VP16 counterscreen qHTS for inhibitors of ROR gamma transcriptional activity
condition.parameters: Drosophila S2 Gal4-VP16 UAS-luciferase, luminescence, 20 h; series mostly up to 53.6 µM
The campaign covered roughly 310,000 compounds. About 11,000 (3.5%) were called active. About 8% were inconclusive and are not listed. Calls follow the shape of the dose curve; as a rule, active = well fitted inhibition curve with a large enough effect; inconclusive = small, poorly fitted or top-dose-only effect, or effect the other way; inactive = flat fitted curve, though single readings scatter. The sample as a whole holds a higher share of actives than the screen did.
Classes used: active, inactive

compound=C(=N\Nc1ccc2ccccc2n1)/c1ccc2c(c1)OCO2 class_name=active
compound=Cc1cc(=O)[nH]c(N/N=C/c2ccc3c(c2)OCCO3)n1 class_name=inactive
compound=O=C(O)CN1c2cccc3cccc(c23)S1(=O)=O class_name=inactive
compound="CCCCc1nc2cc(C(=O)N3CCCCC3CCO)ccc2o1 (stereo unspecified)" class_name=inactive
compound="CC(NC(=O)CCCC1CCCCC1)c1ccc(S(N)(=O)=O)cc1 (stereo unspecified)" class_name=inactive
compound=Nc1cc(N)nc(SCc2cccc(F)c2)n1 class_name=inactive
compound="COc1ccc(OC)c(S(=O)(=O)N2CCCC(C(=O)NCCc3ccccc3)C2)c1 (stereo unspecified)" class_name=inactive
compound=CC(=O)c1cccc(NC(=O)CN2C(=O)c3cccnc3Oc3ccc(Cl)cc32)c1 class_name=inactive
compound=CCN1C(=NCC(C)C)N[C@@H](CCc2ccccc2)[C@H](C(=O)NCC(C)C)[C@H]1C class_name=inactive
compound=CC1(C)Cc2c(sc(NC(=O)C(=O)N3CCOCC3)c2C#N)CO1 class_name=inactive
compound=CCOc1ccc(NC(=O)C2CCN(C(=O)N3CCOc4ccccc43)CC2)cc1 class_name=inactive

----------
protocol.details: VP16 counterscreen qHTS for inhibitors of ROR gamma transcriptional activity;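 also: Gal4-VP16 expression switched on by copper sulfate through the metallothionein promoter; nearly all actives have a fitted effect of over 50% in size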
condition.parameters: Drosophila S2 Gal4-VP16 UAS-luciferase, luminescence, 20 h; series mostly up to 53.6 µM
Screen size: about 310,000 compounds; about 11,000 (3.5%) were called active. Another 8% or so got no clear call; they are omitted. The call rests on the fitted dose curve; in most records, active means well fitted inhibition curve with a large enough effect; inconclusive means small, poorly fitted or top-dose-only effect, or effect the other way; inactive means flat fitted curve, though single readings scatter. The sample as a whole holds a higher share of actives than the screen did.
Classes used: active, inactive

compound_structure=COc1cc(CN2CCC(n3nccc3NC(=O)CCCc3ccccc3)CC2)ccc1O class_name=inactive
compound_structure=COC(=O)c1cc(-c2cccs2)nc2ccccc12 class_name=inactive
compound_structure=O=C(Nc1ccn(Cc2ccccc2)n1)c1cccc(F)c1 class_name=inactive
compound_structure=NC(=O)N1CCc2ccccc21 class_name=inactive
compound_structure=COc1ccc(C2=Nn3c(nnc3-c3ccccc3O)SC2)cc1 class_name=inactive
compound_structure=CCN(CC(=O)NCCCN1CCOCC1)S(=O)(=O)c1cc(Cl)ccc1Cl class_name=inactive
compound_structure=COC(=O)CNC(=O)c1cc(-c2ccncc2)nc2ccccc12 class_name=inactive
compound_structure=Cc1c(CC(=O)NCC(=O)NCC(=O)O)c(=O)oc2cc3oc4c(c3cc12)CCCC4 class_name=inactive
compound_structure=Cn1c(CNC(=O)c2ccccc2F)nnc1SCc1ccc(F)cc1 class_name=inactive
compound_structure=O=C(O)c1cccc(NC(=O)c2cc(-c3cccc(Cl)c3)nc3ccccc23)c1 class_name=inactive
compound_structure=O=C(Nc1nnc(-c2ccccc2)o1)c1cc(-c2cccs2)nc2ccccc12 class_name=active

----------
protocol.details: VP16 counterscreen qHTS for inhibitors of ROR gamma transcriptional activity;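 also: Gal4-VP16 expression switched on by copper sulfate through the metallothionein promoter; nearly all actives have a fitted effect of over 50% in size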; also: potency is read from the fitted curve at half-maximal effect
condition.parameters: Drosophila S2 Gal4-VP16 UAS-luciferase, luminescence, 20 h; series mostly up to 53.6 µM
The whole screen tested about 310,000 compounds, of which about 11,000 (3.5%) were called active. Roughly 8% stayed inconclusive and do not appear here. The full list was thinned out, with actives kept by preference.
measurement.kind: Potency

compound_structure=COc1ccc(C(=O)Nc2ccccc2C(=O)NCc2ccco2)cc1 assay_result=inactive
compound_structure=COc1cc(/C=N/NC(=O)c2ccccc2)ccc1OS(=O)(=O)c1ccccc1 assay_result=inactive
compound_structure=COc1ccc(C(=O)Nc2ccccc2C(=O)N/N=C/c2ccccc2OC)cc1 assay_result="12.6 µM (active)"
compound_structure=Cc1nnc(N/N=C/c2cccs2)[nH]c1=O assay_result=inactive
compound_structure=COc1ccc(Nc2nc(=O)[nH]nc2C)cc1 assay_result=inactive
compound_structure=COc1ccc(C(=O)Nc2ccccc2C(=O)N/N=C/c2ccc(O)c(OC)c2)cc1 assay_result="0.316 µM (active)"

----------
protocol.details: VP16 counterscreen qHTS for inhibitors of ROR gamma transcriptional activity;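 also: Gal4-VP16 expression switched on by copper sulfate through the metallothionein promoter; nearly all actives have a fitted effect of over 50% in size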
condition.parameters: Drosophila S2 Gal4-VP16 UAS-luciferase, luminescence, 20 h; series mostly up to 53.6 µM
Out of some 310,000 compounds screened, about 11,000 (3.5%) were called active. Not shown: some 8% with an inconclusive outcome. Calls come from the whole dose curve; as a rule, active = well fitted inhibition curve with a large enough effect; inconclusive = small, poorly fitted or top-dose-only effect, or effect the other way; inactive = flat fitted curve, though single readings scatter. Shown is part of a subset that was picked to be rich in actives.
Outcome codes: true (1) (active), false (0) (inactive)

compound_structure=COc1c(Cl)cc(C(=O)Nc2ccc(Cl)cn2)cc1Cl class_name="false (0)"
compound_structure=COc1ccc(-c2oc3ncnc(NCCCO)c3c2-c2ccc(OC)cc2)cc1 class_name="false (0)"
compound_structure=Cc1ccccc1C(=O)N1CCN(c2ccc(NC(=O)c3cccs3)cc2)CC1 class_name="false (0)"
compound_structure=COc1ccc(C(=O)NC(=S)Nc2ccc(Cl)cn2)cc1OC class_name="true (1)"
compound_structure=COc1ccc(C(=O)N/N=C(\C)CC(=O)Nc2ccc(Cl)cn2)cc1 class_name="false (0)"
compound_structure=COc1ccc(C(=O)NC(=S)Nc2ccc(N3CCCC3)cc2)cc1OC class_name="true (1)"

----------
protocol.details: VP16 counterscreen qHTS for inhibitors of ROR gamma transcriptional activity;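 also: Gal4-VP16 expression switched on by copper sulfate through the metallothionein promoter; nearly all actives have a fitted effect of over 50% in size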
condition.parameters: Drosophila S2 Gal4-VP16 UAS-luciferase, luminescence, 20 h; series mostly up to 53.6 µM
About 11,000 (3.5%) of roughly 310,000 compounds were called active. Inconclusive results (about 8%) are left out. Calls come from the whole dose curve; as a rule, active = well fitted inhibition curve with a large enough effect; inconclusive = small, poorly fitted or top-dose-only effect, or effect the other way; inactive = flat fitted curve, though single readings scatter. The sample holds actives, similar compounds and a random draw of the others, so the mix is not that of the screen.
Outcomes: true (active), false (inactive)

molecule=Cc1nnc(NC(=O)C(c2ccccc2)c2ccccc2)s1 class_name=false
molecule=O=C(Cc1cccc2ccccc12)NNC(=O)Nc1ccc(Cl)cc1 class_name=false
molecule=Cc1ccc(-c2cc(C(=O)N/N=C/C=C/c3ccco3)c3ccccc3n2)cc1C class_name=true
molecule=Cc1nn(C(C)(C)C)c(OC(=O)CC(C)C)c1S(=O)(=O)c1ccccc1 class_name=false
molecule=O=C(Nc1ccc(NC(=O)c2ccccc2F)cc1)c1ccccc1F class_name=false
molecule=Fc1ccccc1Cn1cnc(NC(=S)NCCc2ccccc2)n1 class_name=false
molecule=C/C(=N\NC(=O)Cc1ccc(Cl)cc1)c1ccccn1 class_name=true
molecule=CN(C)c1ccc(-n2cccc2/C=C2/SC(=Nc3ccc(F)cc3)NC2=O)cc1 class_name=false
molecule=COc1ccc([N+](=O)[O-])cc1NCC(=O)c1ccc(C)cc1 class_name=false
molecule=COc1ccc(OC)c(CCNC(=O)CCn2ccc3cc(S(=O)(=O)N4CCCC4)ccc32)c1 class_name=false
molecule=COc1cccc(NC(=O)C(=O)c2cn(CC(=O)N3CCOCC3)c3ccccc23)c1 class_name=false
molecule=O=C(Nc1cccc([N+](=O)[O-])c1)Nc1ccc(Cl)cn1 class_name=false
molecule=CCOc1cccc(/C=N/N2C(=O)CSC2=S)c1O class_name=true
molecule=Cc1nnc(SCC(=O)N/N=C/c2cn(-c3ccccc3)nc2-c2ccc(F)cc2)n1-c1ccccc1 class_name=false
molecule="N#CCC(=O)NC1CCC(CC2CCC(NC(=O)CC#N)CC2)CC1 (centres undefined)" class_name=false
molecule=C/C(=N\NC(=O)Cc1ccc(Br)cc1)c1cccnc1 class_name=false
molecule=C/C(CC(=O)Nc1ccc(N(C)C)cc1)=N\NC(=O)c1ccccc1F class_name=false
molecule=O=C(NCCc1ccccc1)c1ccc2c(c1)N(Cc1ccccc1)CCS2 class_name=false
molecule=O=C(Oc1cccc(C(=S)N2CCOCC2)c1)c1cccc(Cl)c1 class_name=false
molecule="CCCCC(C(=O)NC(C)(C)C)N(Cc1ccccc1)C(=O)c1snc(C(N)=O)c1N (centres undefined)" class_name=false
molecule=C=Cn1cc[n+](CC(=O)c2ccc(OC)c(OC)c2)c1 class_name=false
molecule=CCc1ccc(-c2nn(-c3ccccc3)cc2CSC(=N)N)cc1 class_name=true
molecule="Cn1c(=O)c2c(SCC(=O)NCC3CCCO3)nc(CC(C)(C)C)nc2n(C)c1=O (centres undefined)" class_name=false
molecule=Cc1cccc(NS(=O)(=O)c2ccc(C(=O)NCC(C)(C)N3CCOCC3)cc2)c1C class_name=false
molecule=CC(=O)Nc1ccc(-c2nc3ccccc3o2)cc1 class_name=false
molecule=C/C(=N\NC(=O)c1ccccc1F)c1ccccn1 class_name=true
molecule=CCCc1cc(C(=O)Nc2ccc(Cl)cn2)cs1 class_name=false
molecule="COc1cc(C(C(=O)NC2CCCC2)N(Cc2ccccc2)C(=O)c2snc(C(N)=O)c2N)ccc1O (centres undefined)" class_name=false
molecule="CCOC(=O)C1CCN(C(=O)C2CCCN(S(=O)(=O)c3ccc(OC)c(Cl)c3)C2)CC1 (centres undefined)" class_name=false
molecule=C#CCOc1ccc(/C=C2/C(=O)ON=C2C)cc1OCC class_name=false
molecule=CCCCN=C1N/C(=C\c2ccco2)C(=O)N1c1ccccc1 class_name=false
molecule=CCCCC[C@H]1CN(C2CCCCC2)C(=O)[C@@H]1CC(=O)NCc1ccc(OC)cc1 class_name=false
molecule=Cc1cc(NC(=O)c2ccccc2C)no1 class_name=false
molecule=O=C(Nc1ccc2c(c1)nc1n2CCCCC1)c1cc(S(=O)(=O)N2CCOCC2)ccc1Cl class_name=true
molecule=Cc1cccc(NC(=O)c2cccnc2Cl)n1 class_name=false
molecule=CCCCCCn1cc(C(=O)O)c(=O)c2cc(F)c(N3CCCCC3)cc21 class_name=false
molecule=O=C1CCN(CCc2ccccc2)CCN1CCOc1ccccc1 class_name=false
molecule=COc1cccc(NC(=O)CN(C)C(=O)c2ccccc2CCc2ccccc2)c1 class_name=false
molecule="O=C1c2cccc3c([N+](=O)[O-])ccc(c23)C(=O)N1CC1CCCO1 (centres undefined)" class_name=true
molecule=CCN(CC)S(=O)(=O)c1ccc(C(=O)N2CCN(C3=NS(=O)(=O)c4ccccc43)CC2)cc1 class_name=false
molecule=Cc1cc2nc(-c3ccc(NC(=O)c4cccnc4)cc3)oc2cc1C class_name=false
molecule=CCN(C(=O)c1cc([N+](=O)[O-])ccc1NCc1cccnc1)c1ccccc1 class_name=false
molecule=O=C(CCl)NNc1nc(-c2ccccc2)c2cc(Cl)ccc2n1 class_name=true
molecule=O=C(O)c1ccccc1CSc1nc2ccccc2s1 class_name=false
